- tested.system: P. falciparum apicoplast DNA polymerase (Pf-apPOL) (Plasmodium falciparum, UniProt Q8ILY1)
- Sequence (Q8ILY1 entry or part of it): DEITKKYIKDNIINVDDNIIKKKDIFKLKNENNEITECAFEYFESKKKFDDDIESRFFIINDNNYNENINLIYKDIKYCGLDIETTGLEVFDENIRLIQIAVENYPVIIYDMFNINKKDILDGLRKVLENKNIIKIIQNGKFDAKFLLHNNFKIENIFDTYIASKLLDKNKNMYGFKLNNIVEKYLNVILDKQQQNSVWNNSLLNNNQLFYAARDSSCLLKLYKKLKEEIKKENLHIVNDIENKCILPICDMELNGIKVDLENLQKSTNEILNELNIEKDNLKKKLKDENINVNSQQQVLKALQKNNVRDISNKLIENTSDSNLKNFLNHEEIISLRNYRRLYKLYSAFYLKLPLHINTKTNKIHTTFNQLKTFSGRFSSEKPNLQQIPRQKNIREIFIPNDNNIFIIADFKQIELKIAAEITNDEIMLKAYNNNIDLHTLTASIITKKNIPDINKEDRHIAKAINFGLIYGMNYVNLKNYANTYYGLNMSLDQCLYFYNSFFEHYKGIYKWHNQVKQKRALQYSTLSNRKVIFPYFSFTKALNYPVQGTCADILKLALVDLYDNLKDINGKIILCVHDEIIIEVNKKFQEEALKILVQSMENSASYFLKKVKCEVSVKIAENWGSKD
- measurement.protocol: Fluorescence-based high-throughput DNA polymerase assay (molecular beacon), primary screen and dose-response;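 note: test concentration in µM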
- Assay type: biochemical
- particulars: DRC-2; 180'; concentration 2.5

| molecule | tested.system | % inhibition apPOL 180' (%) |
| --- | --- | --- |
| Cc1ccc(C)c(CSc2nc(C3CCCCC3)c(C#N)c(=O)[nH]2)c1 | P. falciparum apicoplast DNA polymerase (Pf-apPOL) (Plasmodium falciparum, UniProt Q8ILY1) | 5.53 |
| O=C1N/C(=N/c2ccccc2Cl)S/C1=C/c1ccc([N+](=O)[O-])o1 | P. falciparum apicoplast DNA polymerase (Pf-apPOL) (Plasmodium falciparum, UniProt Q8ILY1) | 7 |
| Cc1cc(C)c2c(O)nc(SCC(=O)c3ccc(O)c(O)c3)nc2n1 | P. falciparum apicoplast DNA polymerase (Pf-apPOL) (Plasmodium falciparum, UniProt Q8ILY1) | 18 |
| Cc1ccc(CCNC(=O)c2cnn3c(O)c(Cc4ccccc4F)c(C)nc23)cc1 | P. falciparum apicoplast DNA polymerase (Pf-apPOL) (Plasmodium falciparum, UniProt Q8ILY1) | -2.35 |
| O=C(Cc1cc(=O)[nH]c(SCc2ccccc2)n1)Nc1ccc2c(c1)OCO2 | P. falciparum apicoplast DNA polymerase (Pf-apPOL) (Plasmodium falciparum, UniProt Q8ILY1) | -5.33 |
| CC(NC(=O)Cc1cc(=O)[nH]c(SCc2cccc(Cl)c2)n1)c1ccccc1 (centres unmarked) | P. falciparum apicoplast DNA polymerase (Pf-apPOL) (Plasmodium falciparum, UniProt Q8ILY1) | -3 |
| NS(=O)(=O)c1ccc(NC(=O)c2ccc(N3C(=O)CCC3=O)cc2)cc1 | P. falciparum apicoplast DNA polymerase (Pf-apPOL) (Plasmodium falciparum, UniProt Q8ILY1) | -4.26 |
| O=[N+]([O-])c1ccc(/C=C/c2ccc3ccccc3n2)o1 | P. falciparum apicoplast DNA polymerase (Pf-apPOL) (Plasmodium falciparum, UniProt Q8ILY1) | 29 |

---

The following compounds are shown together with reported % inhibition T4 10' 10 values.
- tested.system: bacteriophage T4 DNA polymerase (Enterobacteria phage T4)
- Construct: made in house
- Sequence (P04415 whole entry): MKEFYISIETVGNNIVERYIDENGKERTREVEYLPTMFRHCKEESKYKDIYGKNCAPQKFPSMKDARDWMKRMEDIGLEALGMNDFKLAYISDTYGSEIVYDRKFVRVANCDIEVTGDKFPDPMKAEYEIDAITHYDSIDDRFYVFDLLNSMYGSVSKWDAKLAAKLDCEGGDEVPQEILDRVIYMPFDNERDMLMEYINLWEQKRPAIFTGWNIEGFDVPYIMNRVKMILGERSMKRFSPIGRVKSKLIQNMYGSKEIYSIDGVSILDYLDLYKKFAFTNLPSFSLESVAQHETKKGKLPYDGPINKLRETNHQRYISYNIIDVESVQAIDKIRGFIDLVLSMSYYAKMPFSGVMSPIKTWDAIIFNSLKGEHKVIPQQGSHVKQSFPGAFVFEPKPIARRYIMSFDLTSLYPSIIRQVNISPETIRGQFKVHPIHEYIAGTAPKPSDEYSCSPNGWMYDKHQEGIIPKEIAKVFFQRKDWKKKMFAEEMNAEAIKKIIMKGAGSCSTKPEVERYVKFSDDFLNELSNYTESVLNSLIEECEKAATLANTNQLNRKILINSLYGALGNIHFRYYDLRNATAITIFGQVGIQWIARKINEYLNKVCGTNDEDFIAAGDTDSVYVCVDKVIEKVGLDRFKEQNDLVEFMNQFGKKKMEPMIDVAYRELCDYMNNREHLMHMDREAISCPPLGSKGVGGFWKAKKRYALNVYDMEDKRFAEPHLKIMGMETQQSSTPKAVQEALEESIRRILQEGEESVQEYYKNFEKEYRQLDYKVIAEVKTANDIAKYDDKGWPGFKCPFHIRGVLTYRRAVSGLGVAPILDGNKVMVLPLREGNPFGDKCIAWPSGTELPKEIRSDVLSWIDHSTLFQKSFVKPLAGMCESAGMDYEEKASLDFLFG
- measurement.protocol: Counter-screen against bacteriophage T4 DNA polymerase
- Format: biochemical
- particulars: DRC-1; read at 10'; concentration 10

| compound | output.unit | % inhibition T4 10' 10 |
| --- | --- | --- |
| COc1ccc(C2CC(c3ccc(Cl)cc3Cl)Nc3nc(N)nn32)cc1OC (centres unmarked) | % | 3.64 |
| COc1ccccc1CC(=O)N1CCc2c(nc3cc(-c4ccccc4Cl)[nH]n3c2=O)C1 | % | -5.62 |
| Cc1cc2[nH]c(C(=O)Nc3ccc(F)cc3)c(CN3CCOCC3)c2s1 | % | 21.452 |
| CC(=O)Nc1cc(C(=O)c2cccs2)nn(-c2ccc(Cl)cc2)c1=O | % | 8.968 |
| O=C1CSC2=NC3=C(CCc4ccccc43)C(c3cccs3)N12 (centres unmarked) | % | 14.9012 |
| CCCc1ccc(Oc2coc3cc(OC)ccc3c2=O)cc1 | % | 7.431 |
| CC(=O)OCC1=C(C(=O)[O-])N2C(=O)[C@@H](NC(=O)Cc3cccs3)[C@H]2SC1.[Na+] | % | 24.8784 |
| O=C(c1ccccc1)N1CCc2c(nc3cc(-c4ccccc4)[nH]n3c2=O)C1 | % | -6.45 |
